// data source = ChEMBL document CHEMBL3526123

Experiment: Cmax in human cord blood
parameter: Cmax (nM)
Write down the numeric answer in nM and omit the unit.

Which Cmax reading was recorded for the molecule CCCCCC(=O)O[C@]1(C(C)=O)CC[C@H]2[C@@H]3CCC4=CC(=O)CC[C@]4(C)[C@H]3CC[C@@]21C [HYDROXYPROGESTERONE CAPROATE] ? 20

* * *

Tested on: Hepatocyte
Test: Drug excretion in sandwich-cultured human fetal hepatocytes assessed as mean biliary index
Format: ADME, cell-based
parameter: Drug excretion (%)
Note: unit % is implicit; provide only the numeric part.

Suppose we examine the compound CCCCCC(=O)O[C@]1(C(C)=O)CC[C@H]2[C@@H]3CCC4=CC(=O)CC[C@]4(C)[C@H]3CC[C@@]21C [HYDROXYPROGESTERONE CAPROATE] ; what Drug excretion value has been reported? 7
